system: XIP peptide (Xip251-270) binding; assay: small-molecule binders of XIP peptide, primary screen, biochemical, small-molecule microarray, fluorescence 635/667 nm, 0.1 µg/mL protein (AID 1182); conditions: fluorescent protein binding, 635 nm, higher = more signal, called active from +8 up or from −8 down

Molecule	composite z-score
CC(C)C(=O)N[C@H]1CCCN1C(=O)C=Cc1ccccc1	0.934
COC(=O)CC=C1c2ccccc2[C@H](OC)[C@H]1C	-1.14
CC(C)CON=C1[C@H]2CCn3c(=O)n(C)c(=O)n3[C@H]2[C@H](O)[C@@H]2O[C@H]12	-0.12
COC(=O)C1=C(C)N(Cc2ccccc2)C2=C3C(=O)OCC[C@@H]3[C@@](O)(C(=O)OC)C(=O)N2[C@@H]1c1ccccc1	0.75
C[C@H]1C=CCC(=O)OC[C@H](C)C(=O)N2CCC[C@H]2C(=O)OC1	0.23
COC(=O)CC=C[C@@H](C)[C@@H](C=NOC(C)CN1CCCc2nc(C)c(C)cc21)NS(=O)(=O)c1ccc(C)cc1 (stereo partly drawn)	0.364
O=C1C=C[C@@H](O)[C@@H]2[C@@H]3C(=O)N(Cc4ccccc4)C(=O)[C@@H]3CC[C@@H]12	0.771
CC(C)=CCCC(C)=CCON=C1[C@H]2CCn3c(=O)n(-c4ccccc4)c(=O)n3[C@H]2[C@H](O)[C@@H]2O[C@H]12	0.246
O=C1CCCC=C1C(O)C1CCCCC1 (stereo not drawn)	-0.459
CC(C)(C)N1C(=O)[C@H]2[C@H]3[C@H](O)[C@H](O)CC(=NNC(=O)OCc4ccccc4)[C@@H]3CC[C@H]2C1=O	0.0863
O=C1C[C@@H](O)[C@@H](O)[C@@H]2[C@@H]3C(=O)N(C4CCCCC4)C(=O)[C@@H]3CC[C@@H]12	-0.08
O=C1C2=CC[C@H]3C(=O)N(C4CCCCC4)C(=O)[C@H]3[C@H]2[C@H](O)[C@@H]2O[C@H]12	0.381
CCOC(=O)CCN1C(=O)[C@H]2[C@H]3[C@H](O)[C@H](O)CC(=NO[C@@H]4O[C@H](CO)[C@@H](O)[C@H](O)[C@H]4O)[C@H]3CC[C@H]2C1=O	0.234
CCCNC(=O)OC[C@H]1O[C@H](CCON=C[C@@H](NS(=O)(=O)c2ccc(C)cc2)[C@H](C)C=CCC(=O)OC)C=C[C@@H]1Oc1ccc(OC)cc1	-0.349
CC(=O)OC[C@H]1O[C@H](CC=NOC(C)CN2CCCCc3nc(C)c(C)cc32)C=C[C@@H]1OC(C)=O (stereo partly drawn)	0.231
O=C1C2=CC[C@H]3C(=O)N(Cc4ccccc4)C(=O)[C@H]3[C@H]2[C@H](O)[C@@H]2O[C@H]12	0.409
CCN1C(=O)[C@H]2[C@H]3[C@H](O)[C@H](O)CC(=NOCC(C)C)[C@H]3CC[C@H]2C1=O	-0.583
CC(=O)OC[C@H]1O[C@H](CCON=C(C)C)C=C[C@@H]1OC(C)=O	-0.843
CO[C@@H]1COC(=O)CC=C[C@H](C)[C@H](OC)COC(=O)[C@@H]2CCCN2C(=O)CC=C[C@H]1C	0.233
CCOC(=O)NN=C1C[C@@H](O)[C@@H](O)[C@@H]2[C@@H]3C(=O)N(CC)C(=O)[C@@H]3CC[C@H]12	0.124
CON=C(C)CCN1CCCCc2nc(C)c(C)cc21	0.0459
CC(C)[C@@H](OCc1ccccc1)[C@H](C)C=NO[C@H](C)c1cn([C@@H]2COC[C@H]2O)nn1	-0.0971
CC(CCN1CCc2nc(-c3ccccc3)c(-c3ccccc3)cc2C1)=NO[C@@H](C)c1cc(-c2c(C)cc(C)cc2C)no1	1.27
CCN1C(=O)[C@H]2[C@H]3[C@H](O)[C@H](O)CC(=NO[C@@H](C)c4cc(-c5c(C)cc(C)cc5C)no4)[C@@H]3CC[C@H]2C1=O	0.359
CCCCOC(OCCCC)C(O)CSc1ccc2ccccc2c1 (stereo not drawn)	0.115
O=C1C=C[C@@H](O)[C@@H]2[C@@H]3C(=O)N(c4cccc(Oc5ccccc5)c4)C(=O)[C@@H]3CC[C@@H]12	-0.0205
CC(=O)OC[C@H]1O[C@H](CCON=C(C)CCN2CCCc3nc(C)c(C)cc32)C=C[C@@H]1OC(C)=O	0.36
C[C@H]1CC[C@@H](C(=O)O)N[C@@H]1c1ccc(C#Cc2ccccc2)cc1	-0.125
CO[C@@H]1COC(=O)[C@H](CCSC)NC(=O)CC=C[C@@H](C)COC(=O)[C@@H]2CCCN2C(=O)CC=C[C@H]1C	0.665
CCOC(=O)[C@H](Cc1ccccc1)NC(=O)CCC1CC(OC(=O)NCc2ccc3c(c2)OCO3)CC2(CCCC(COC(=O)NCCc3ccc(Cl)cc3)O2)O1 (stereo partly drawn)	0.0608
C[C@@H]1CC[C@@H](C(=O)O)N[C@H]1c1cccc(N2CCOCC2)c1	-0.315
CCOC(=O)[C@H](CC(C)C)NC(=O)CCC1CC(OC(=O)NCCc2ccc(F)cc2)CC2(CCCC(COC(=O)NCCOC)O2)O1 (stereo partly drawn)	0.0029
O=C(NCCC[N+]1=CC=NC1c1ccccc1)N1CCCc2nc(-c3ccc(Br)cc3)ccc21 (stereo not drawn)	0.638
